Biological target: mTOR (Homo sapiens)
Construct: FLAG; made in house
Sequence (P42345 1362-2549): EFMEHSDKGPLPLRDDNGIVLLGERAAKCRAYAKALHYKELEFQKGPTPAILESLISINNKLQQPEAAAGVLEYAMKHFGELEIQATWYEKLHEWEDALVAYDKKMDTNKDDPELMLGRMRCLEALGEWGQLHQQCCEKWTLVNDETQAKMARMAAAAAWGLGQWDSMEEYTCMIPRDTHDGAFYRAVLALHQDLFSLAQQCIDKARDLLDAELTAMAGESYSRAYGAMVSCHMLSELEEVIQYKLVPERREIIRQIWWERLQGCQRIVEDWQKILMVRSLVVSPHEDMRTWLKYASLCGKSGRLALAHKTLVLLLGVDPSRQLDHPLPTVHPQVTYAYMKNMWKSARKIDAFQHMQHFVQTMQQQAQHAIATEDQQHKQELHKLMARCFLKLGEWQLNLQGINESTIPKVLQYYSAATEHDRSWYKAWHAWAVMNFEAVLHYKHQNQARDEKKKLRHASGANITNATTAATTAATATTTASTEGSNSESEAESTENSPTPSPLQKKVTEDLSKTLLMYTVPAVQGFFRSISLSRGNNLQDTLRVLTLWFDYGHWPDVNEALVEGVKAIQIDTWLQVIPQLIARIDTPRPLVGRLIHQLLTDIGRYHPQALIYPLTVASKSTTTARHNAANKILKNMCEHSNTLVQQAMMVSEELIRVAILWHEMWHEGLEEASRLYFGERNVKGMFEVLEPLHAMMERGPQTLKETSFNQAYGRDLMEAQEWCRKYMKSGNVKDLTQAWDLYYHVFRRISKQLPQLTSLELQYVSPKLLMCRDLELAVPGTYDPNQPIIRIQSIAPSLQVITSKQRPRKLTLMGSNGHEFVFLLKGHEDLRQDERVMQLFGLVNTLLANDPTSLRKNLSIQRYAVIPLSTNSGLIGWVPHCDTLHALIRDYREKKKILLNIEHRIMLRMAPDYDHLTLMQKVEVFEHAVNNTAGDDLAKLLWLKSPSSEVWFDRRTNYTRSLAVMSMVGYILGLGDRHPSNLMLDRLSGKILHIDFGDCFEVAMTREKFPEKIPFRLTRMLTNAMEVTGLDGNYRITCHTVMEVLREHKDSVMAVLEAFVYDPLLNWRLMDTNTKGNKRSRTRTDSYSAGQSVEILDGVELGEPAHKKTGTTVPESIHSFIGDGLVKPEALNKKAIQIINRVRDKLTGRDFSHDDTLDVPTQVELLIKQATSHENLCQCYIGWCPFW
Experiment: In Vitro mTOR Kinase Assay (Echo), Test (a)(ii)
Format: biochemical
Conditions: table of enzyme assay Test (a)(ii); read-out: Test (a)(ii) IC50
pIC50: −log10 of the molar value.
# pIC50 per entry
Measure Name: pIC50

* C[C@H]1COCCN1c1cc(C2(S(=O)(=O)c3ccccn3)CCC2)nc(-c2ccc(NC(=O)NCCC#N)cc2)n1 [Example 36ai] | 8.25
* C[C@H]1COCCN1c1cc(C2(S(=O)(=O)c3ccccc3)CCCC2)nc(-c2ccc(NC(=O)NCCO)cc2)n1 [Example 36bx] | 8.57
* C[C@H]1COCCN1c1cc(C2(S(=O)(=O)CCCO)CCOCC2)nc(-c2ccc(NC(=O)NC3CCC3)cc2)n1 [Example 36cd] | 6.83

====

Target: mTOR (Homo sapiens)
Construct: FLAG; made in house
Experiment: In Vitro mTOR Kinase Assay (Echo), Test (a)(ii)
Type: biochemical
Conditions: table of enzyme assay Test (a)(ii); read-out: Test (a)(ii) IC50
Excerpt: (a)(ii) In Vitro mTOR Kinase Assay (Echo) The assay used AlphaScreen technology (Gray et al., Analytical Biochemistry, 2003, 313: 234-245) to determine the ability of test compounds to inhibit phosphorylation by recombinant mTOR. A C-terminal truncation of mTOR encompassing amino acid residues 1362 to 2549 of mTOR (EMBL Accession No. L34075) was stably expressed as a FLAG-tagged fusion in HEK293 cells as described by Vilella-Bach et al., Journal of Biochemistry, 1999, 274, 4266-4272. […]
pIC50: −log10 of the molar value.
Measure Name: pIC50

* C[C@H]1COCCN1c1cc(C2(S(C)(=O)=O)CCCC2)nc(-c2ccc(NC(=O)NCCO)nc2)n1 [Example 14q] | 7.58
* C[C@H]1COCCN1c1cc(C2(S(=O)(=O)c3ccccc3F)CC2)nc(-c2ccc(NC(=O)NCCO)cc2)n1 [Example 58b] | 8.70
* CNC(=O)Nc1ccc(-c2nc(N3CCOC[C@@H]3C)cc(C3(S(=O)(=O)c4cccc(F)c4)CC3)n2)cc1 | 8.66
* Cc1ccc(S(=O)(=O)C2(c3cc(N4CCOC[C@@H]4C)nc(-c4ccc(NC(=O)Nc5cnn(C)c5)cc4)n3)CCC2)cc1 [Example 68a] | 8.76
* CNC(=O)Nc1ccc(-c2nc(N3CCOC[C@@H]3C)cc(C3(S(=O)(=O)c4ccc(C(N)=O)cc4Cl)CC3)n2)cc1 | 8.32
* Cc1csc(S(=O)(=O)C2(c3cc(N4CCOC[C@@H]4C)nc(-c4ccc(NC(=O)N[C@H](C)CO)cc4)n3)CCC2)n1 [Example 98f] | 8.64
* CNC(=O)Nc1ccc(-c2nc(N3CCOCC3)cc(C3(S(=O)(=O)c4ccccn4)CC3)n2)cc1 [Example 56a] | 8.65
* C[C@H]1COCCN1c1cc(C2(S(=O)(=O)C3CC3)CC2)nc(-c2ccc(NC(=O)NCCN(C)C)nc2)n1 [Example 14b] | 5.86

====

Biological target: mTOR (Homo sapiens)
Construct: FLAG; made in house
Experiment: In Vitro mTOR Kinase Assay (Echo), Test (a)(ii)
Format: biochemical
Settings: table of enzyme assay Test (a)(ii); read-out: Test (a)(ii) IC50
pIC50: −log10 of the molar value.
Measure Name: pIC50

• CCNC(=O)Nc1ccc(-c2nc(N3CCOC[C@@H]3C)cc(C3(S(=O)(=O)c4sc(C)nc4C)CC3)n2)cc1 [Example 78b] = 7.48
• CNC(=O)Nc1ccc(-c2nc(N3CCOC[C@@H]3C)cc(C3(S(=O)(=O)c4ccc(F)cc4C)CC3)n2)cc1 [Example 82] = 8.03
• C[C@H]1COCCN1c1cc(C2(S(C)(=O)=O)CC2)nc(-c2ccc(NC(=O)NCCCO)cc2)n1 [Example 36bb] = 8.29
• CNC(=O)Nc1ccc(-c2nc(N3CCOCC3)cc(C3(S(=O)(=O)C4CC4)CCCC3)n2)cc1 [Example 13k] = 7.75
• C[C@H]1COCCN1c1cc(C2(S(=O)(=O)CCCO)CCC2)nc(-c2ccc(NC(=S)NCCO)cc2)n1 [Example 99f] = 8.23
• CS(=O)(=O)C1(c2cc(N3CCOCC3)nc(-c3ccc(NC(=O)NCc4ncc[nH]4)cc3)n2)CC1 [Example 36t] = 6.71
• Cc1ccc(S(=O)(=O)C2(c3cc(N4CCOC[C@@H]4C)nc(-c4ccc(NC(=O)NCC(F)F)cc4)n3)CC2)cc1 [Example 95p] = 8.27
• C[C@H]1COCCN1c1cc(C2(S(=O)(=O)c3ccc(OC(F)F)cc3)CC2)nc(-c2ccc(NC(=O)NCCF)cc2)n1 [Example 64e] = 8.27
• O=C(NCCO)Nc1ccc(-c2nc(N3CCOCC3)cc(C3(S(=O)(=O)c4ccccn4)CC3)n2)cc1 [Example 56c] = 8.21
• C[C@H]1COCCN1c1cc(C2(S(=O)(=O)c3ccc(F)c(Cl)c3)CC2)nc(-c2ccc(NC(=O)NCC(F)F)cc2)n1 [Example 95e] = 7.80
